Data origin, for the record: PubChem BioAssay AID1159580

Test: chemical genetic growth profiling, strain panel (AID 1159580);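 further: tested at 20 µM; growth read once vehicle control cultures reached saturation at 30 °C; 1 = growth at the plate median or of vehicle wells; lower values mean less growth of the strain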
Conditions: S. cerevisiae deletion strains, growth OD, locus YGR135W, strain pre9, active compounds read low
Hit rate of the full screen: of about 5,500 compounds, about 2,000 (36%) were called active. Not shown: some 18% with an inconclusive outcome. This is one part of the list.
attributeMeasured: normalized growth
The reply should be a number, written without any unit.

Which normalized growth value is on record for C=CCN1CC[C@]23c4c5ccc(O)c4OC2C(=O)CC[C@@]3(O)[C@H]1C5 (some centres undefined) ?
0.99

Proceed to COc1cc(/C=C/C(=O)O)ccc1O
0.995

New cases:
Which normalized growth value is on record for CC1(C)CC2C1CCC1(C)OC1CCC2(C)O (centres undefined) ?
1.04
